Organism: Rattus norvegicus
Assay Details: Open TG-GATES - Regimen: Single
Format: toxicity, organism-based, Sprague-Dawley
Parameters: regimen Single, gender Male, age 6 weeks
Condition Summary: in vivo, po, 0 mg/kg, 6 h, tissue Plasma, route gavage, dose level Control
Measured Quantity: K (meq/L)
Enter your answer as a number in meq/L; do not include the unit.

Record excerpt, results attached:
- Compound: "CN1C(=O)CCS(=O)(=O)C1c1ccc(Cl)cc1 (stereo unspecified)"
  K (meq/L): 4.3
- Compound: "CC(C)NNC(=O)c1ccncc1"
  K (meq/L): 4.3
- Compound: "CCCc1cc(=O)[nH]c(=S)[nH]1"
  K (meq/L): 5
- Compound: "Nc1c2c(nc3ccccc13)CCCC2"
  K (meq/L): 4.6
- Compound: "COC(=O)C1=C(C)NC(C)=C(C(=O)OC)C1c1ccccc1[N+](=O)[O-]"
  K (meq/L): 4.2
- Compound: "Cc1nnc2n1-c1ccc(Cl)cc1C(c1ccccc1Cl)=NC2"
  K (meq/L): 4.1
- Compound: "CN/C(=N/CCSCc1nc[nH]c1C)NC#N"
  K (meq/L): 3.8
- Compound: "CNC(=C[N+](=O)[O-])NCCSCc1ccc(CN(C)C)o1"
  K (meq/L): 3.9

The compound listed as CCOc1ccc(NC(C)=O)cc1 shows K equal to 4.1

Sure, the documented K for NC1=NC(=O)C(c2ccccc2)O1 (stereo unspecified) is 3.9

// field: K; key: Brc1ccccc1 ; value = 4
